Origin of measurements: the supplement of paper PMC10724198

System: Saccharomyces cerevisiae
METHOD DESCRIPTION: protein stability index of tFT-peptide fusion (C-terminal peptide) (PSI (0-1 scale)); higher = more stable (slower turnover)
SETTINGS: genetic background: wild type; temperature: 30 C
Provide the reported protein stability index of each item.
Answers are plain numbers.

Please review the entries below; each comes with its answer.
>>> recorded_result("TPASCHQFGYQH")
0.695
>>> recorded_result("GVGSVADWGGVG")
0.599
>>> recorded_result("RRTAVEEWGVGG")
0.672
>>> recorded_result("PPRASPFPTPPP")
0.579
>>> recorded_result("KGRKVVLETQLQ")
0.7

Each sequence below has a recorded value; state its protein stability index.
1. SPQPPHSPLSAR
2. KKGREKKQQKER
3. LPHSYFCPTFFF
4. HCFASLITSIVH

A)
[0.653, 0.717, 0.675, 0.535]

Give protein stability index for each of the items listed below.
1. KKKRKKKQKIRK
2. SLISRAFYSFSP
3. SISVQCSMLRVL

A)
[0.731, 0.699, 0.331]

Okay, here is my list. What is protein stability index for each of these?
1. VGTPPSEVGVLA
2. YSGLNRVPDFCH
3. PSPFPPPLPPHL
4. EERVEYHVALEV
5. PSLPPPPPRAFS

A)
1: 0.628; 2: 0.676; 3: 0.767; 4: 0.664; 5: 0.649

Each sequence below has a recorded value; state its protein stability index.
1. WVVSLTNSLAHV
2. FSSPLSSPSPLY

A)
[0.581, 0.683]

====

Test system: Saccharomyces cerevisiae
METHOD DESCRIPTION: protein stability index of tFT-peptide fusion (C-terminal peptide) (PSI (0-1 scale)); higher = more stable (slower turnover)
SETTINGS: genetic background: wild type; temperature: 30 C
Could you please report measured protein stability index for the items listed next?
Numbers only.

Examples from the recorded data:
>>> recorded_result("LEDHTPPEDKPN [QCR10 C-terminal 12 aa]")
0.695
>>> recorded_result("KHQFLTKAKRFF [FET3 C-terminal 12 aa]")
0.719
>>> recorded_result("VVKRKKVKTKRI [JJJ1 C-terminal 12 aa]")
0.748

Kindly give each listed record's protein stability index.
1. NHFHYDCVYRYC [YOR333C C-terminal 12 aa]
2. VTGSVPAYCDDD [ART5 C-terminal 12 aa]
3. AEFLGSFDELVL [EEB1 C-terminal 12 aa]
4. SEIVDISQLPPG [ILV6 C-terminal 12 aa]
5. MKQLEKAGVRFE [FMP33 C-terminal 12 aa]
6. QMQQMAKQFGMG [SRP54 C-terminal 12 aa]
7. TIHTEVNIGIKQ [ENA1 C-terminal 12 aa]
8. KQIDVFNGPKRV [MIG2 C-terminal 12 aa]

A)
1: 0.404; 2: 0.694; 3: 0.719; 4: 0.703; 5: 0.686; 6: 0.685; 7: 0.736; 8: 0.731

Give protein stability index for each of the items listed below.
1. PPNSTSTNPYSS [SKG3 C-terminal 12 aa]
2. NNQPHYRDQLLQ [REI1 C-terminal 12 aa]
3. DVKLLPPPKKRN [NUC1 C-terminal 12 aa]
4. EHKLGNTKYFED [ARP5 C-terminal 12 aa]
5. NVGYMHTQPQQR [TCO89 C-terminal 12 aa]
6. KHVSGKILGFVY [RPS22A C-terminal 12 aa]
7. ADETVDFYVYDE [SWD2 C-terminal 12 aa]
8. EILGTDEPTVRT [PGM1 C-terminal 12 aa]

A)
[0.718, 0.706, 0.688, 0.687, 0.67, 0.63, 0.698, 0.7]

// batch mode: one protein stability index value per listed entry
1. KVIFKDRPLPIM [CTF8 C-terminal 12 aa]
2. FSSEYLLVHVQQ [YLR458W C-terminal 12 aa]
3. YVFVFIIDFIIR [FUN26 C-terminal 12 aa]
4. NVLTVVNPDEAD [SLG1 C-terminal 12 aa]
5. HLYSTLLFHSVN [RRG8 C-terminal 12 aa]

A)
0.611
0.654
0.245
0.684
0.543

Q) Please look up its protein stability index: DIRAHLAEYYSF [PAU7 C-terminal 12 aa]
A) 0.687

====

Tested on: Saccharomyces cerevisiae
METHOD DESCRIPTION: protein stability index of tFT-peptide fusion (C-terminal peptide) (PSI (0-1 scale)); higher = more stable (slower turnover)
SETTINGS: genetic background: wild type; temperature: 30 C
QUANTITY KIND: protein stability index

Solved cases below.
>>> recorded_result("PLFFGVQAFGGV")
0.734
>>> recorded_result("TPQPPPHSTYRC")
0.702
>>> recorded_result("RPAVPSPRPPPP")
0.674

Hi, could you look up protein stability index for each item in my list?
1. SWRRAASSGGGE
2. PPPTPTPPSQPT
3. WISDRCPSVLCY
4. DGRGPVSPTSLR
5. ARSPSPLPSPPP
6. ANGTLSGSPAPS
7. RPLPGAFLLFRS
8. GVGGGMWCGFGV

A)
[0.618, 0.681, 0.251, 0.662, 0.702, 0.641, 0.695, 0.701]

Dear reader, for each entry below, please note its protein stability index.
1. RGGGGVLEVLLG
2. SPSQRPLPSISP
3. VCCYILFFLFPV
4. VEWLQLERDPLV
5. KKKNKKKRKGRK
6. LPPFFPLLSPPF
7. FLFSSLFCFLFL

A)
[0.535, 0.718, 0.418, 0.741, 0.684, 0.664, 0.433]

List reported protein stability index for each of these sequences:
1. CGGAVMREGQVG
2. TARIIAHPQTRI

A)
1. 0.681
2. 0.661

====

Tested on: Saccharomyces cerevisiae
METHOD DESCRIPTION: protein stability index of tFT-peptide fusion (C-terminal peptide) (PSI (0-1 scale)); higher = more stable (slower turnover)
SETTINGS: genetic background: cdc34-1; temperature: 37 C
QUANTITY KIND: protein stability index
Answers are plain numbers.

>>> recorded_result("LVFSFFFLFFFM")
0.449
>>> recorded_result("TWGGGRVSLGVG")
0.313
>>> recorded_result("FWILLRVLIFVL")
0.176

Respectfully, I request protein stability index for each entry included below.
1. PPPAPPLSMPAP
2. CFGSALLKCWLC

A)
[0.647, 0.602]

====

Test system: Saccharomyces cerevisiae
METHOD DESCRIPTION: protein stability index of tFT-peptide fusion (C-terminal peptide) (PSI (0-1 scale)); higher = more stable (slower turnover)
SETTINGS: genetic background: wild type; temperature: 30 C
Criterion met means recorded protein stability index is 0.7 or above; Criterion not met means it is below 0.7.

>>> class_assignment("RSRSELRVFCTS")
"Criterion not met"
>>> class_assignment("VVFVVGAPPVLC")
"Criterion not met"
>>> class_assignment("VTPPGFTYVLEV")
"Criterion not met"
>>> class_assignment("PLPTGTQPTRHR")
"Criterion not met"
>>> class_assignment("KKKKEEKKKSKK")
"Criterion not met"
>>> class_assignment("DEVGVGASSNVF")
"Criterion not met"
>>> class_assignment("GLMYDGVGCGGD")
"Criterion not met"
>>> class_assignment("MRIKKQNIRNDT")
"Criterion not met"

// next entry
Q) Does protein stability index meet or surpass 0.7 for TLRRYSFTKKNL ?
A) Criterion met

====

Hi there, I'd appreciate the recorded protein stability index for every entry that follows.
System: Saccharomyces cerevisiae
METHOD DESCRIPTION: protein stability index of tFT-peptide fusion (C-terminal peptide) (PSI (0-1 scale)); higher = more stable (slower turnover)
SETTINGS: genetic background: wild type; temperature: 30 C
Answers are plain numbers.

Look over these answered cases.
>>> recorded_result("CSFHFSLFFLRV")
0.332
>>> recorded_result("INKKKKMIITKI")
0.253
>>> recorded_result("SVVYCRMRVHFV")
0.285
>>> recorded_result("MVAHTVRVKCGI")
0.56
>>> recorded_result("PHPPRPPCPPIL")
0.678
>>> recorded_result("VYDVSVGVAVVG")
0.346
>>> recorded_result("SSLTFTFAILLY")
0.219
>>> recorded_result("VFSFLYHVVPVL")
0.348

Give one value of protein stability index per listed sequence.
1. GDFYCSSVVLVV
2. CLLDVVMVVERG
3. RFLPYLPTPLSP
4. FSSFLGFIRFFV
5. GFVSLFRLFIRL
6. VLLRSRLLRRLS
7. LLPTSVFLPSLF

A)
[0.32, 0.347, 0.513, 0.315, 0.25, 0.137, 0.331]

====

Tested on: Saccharomyces cerevisiae
METHOD DESCRIPTION: protein stability index of tFT-peptide fusion (C-terminal peptide) (PSI (0-1 scale)); higher = more stable (slower turnover)
SETTINGS: genetic background: wild type; temperature: 30 C
Outcome label depends on protein stability index relative to 0.7: at/above gives Met, below gives Not met.

Consider the worked cases shown below.
>>> class_assignment("VMQVQCLFFFIL [YJL156W-A C-terminal 12 aa]")
"Not met"
>>> class_assignment("KQNIPRKPNVDI [BNS1 C-terminal 12 aa]")
"Not met"
>>> class_assignment("AGFGCLDSIILY [GSH2 C-terminal 12 aa]")
"Met"
>>> class_assignment("ITKSSNKFVNNV [YNL043C C-terminal 12 aa]")
"Met"
>>> class_assignment("SMGNYYKSFFSM [OMA1 C-terminal 12 aa]")
"Not met"

Q) Dear colleague, could you confirm whether IKETIQRLTDDR [GMC2 C-terminal 12 aa] has protein stability index at or above 0.7?
A) Not met

Q) # bool: protein stability index of EAASDEHFSRVV [YGL185C C-terminal 12 aa] >= 0.7
A) Met

Q) Given QIAFAWQNKPRL [PXP1 C-terminal 12 aa] , state whether its protein stability index is at least 0.7.
A) Met
